# literature pull: Vascular endothelial growth factor receptor 1 (Homo sapiens, UniProt P17948) IC50

Before answering, review these 3 worked examples.
{"Compound": "O=C(c1ccc(Nc2ccccc2)nc1)c1c[nH]c2ncccc12", "IC50": "≤ 10000 nM"}
{"Compound": "Cc1ccoc1C(=O)Nc1cc(Oc2ccnc(-c3cc(C(=O)NCCCN4CCN(C)CC4)c[nH]3)c2)ccc1F", "IC50": "35 nM"}
{"Compound": "COc1cc(Nc2ncnc(-n3c(NCc4ccc(C)cc4)nc4ccccc43)n2)cc(OC)c1OC", "IC50": "4820 to 7030 nM"}

Item COc1cc(Nc2ncnc(-n3c(Nc4ccc(C)cc4)nc4ccccc43)n2)cc(OC)c1OC with Vascular endothelial growth factor receptor 1 (Homo sapiens, UniProt P17948) - IC50?
< 827 nM

Same for O=C(c1cc(O)ccc1F)c1c[nH]c2ncc(Br)cc12
≤ 10000 nM

Same for Cc1ccc(F)c(NC(=O)Nc2ccc(Oc3ccnc(-c4cc(C(=O)NCCNC(=O)OC(C)(C)C)c[nH]4)c3)cc2F)c1
16 nM

Same for NC(=O)c1cccc(Nc2ncnc(-n3c(N)nc4ccccc43)n2)c1
< 1150 nM

Same for CCN(CC)CCNC(=O)c1cc2nccc(Oc3ccc(NC(=O)Nc4cc(C)ccc4F)cc3)c2s1
5 nM

Same for Cc1ccc(F)c(NC(=O)Nc2ccc(Oc3ccnc(-c4cc(C(=O)NCCc5nn[nH]n5)c[nH]4)c3)cc2)c1
7 nM

====

# literature pull: Vascular endothelial growth factor receptor 1 (Homo sapiens) pIC50
pIC50: −log10 of the molar value.

Before answering, review these 6 worked examples.
{"Molecule": "CS(=O)(=O)c1ccc(-c2c[nH]c3ncccc23)cc1", "Endpoint": "pIC50", "Recorded Value": "≥ 5.00"}
{"Molecule": "COc1cc(Nc2ncnc(-n3ccc4cc(F)ccc43)n2)cc(OC)c1OC", "Endpoint": "pIC50", "Recorded Value": "5.22 to 5.99"}
{"Molecule": "CC(=O)NCc1ccc(Nc2ncnc(Nc3cc(-c4ccco4)n[nH]3)n2)cc1", "Endpoint": "pIC50", "Recorded Value": "5.21 to 5.99"}
{"Molecule": "CCCCNC(=O)Nc1ccc(F)c(C(=O)c2c[nH]c3ncc(-c4cccnc4)cc23)c1F", "Endpoint": "pIC50", "Recorded Value": "≥ 5.00"}
{"Molecule": "CCN(CC)CCOc1cc(Nc2ncnc(Nc3cc(OC)c(OC)c(OC)c3)n2)ccc1OC", "Endpoint": "pIC50", "Recorded Value": "< 5.04"}
{"Molecule": "CCN1CCC(Nc2ccc3c(c2)/C(=C(\\c2ccc(N)cc2)c2nc4ccccc4[nH]2)C(=O)N3)CC1", "Endpoint": "pIC50", "Recorded Value": "6.30 to 7.30"}

I have this molecule here, COC(=O)[C@@H]1CCCN1CCCNC(=O)c1c[nH]c(-c2cc(Oc3ccc(F)c(NC(=O)c4occc4C)c3)ccn2)c1 , and I need its recorded pIC50.
7.49

Same for CCOC(=O)C(Nc1nc2ccccc2n1-c1ncnc(Nc2cc(OC)c(OC)c(OC)c2)n1)c1ccccc1 (centres unmarked)
5.36 to 6.14

====

# literature pull: Vascular endothelial growth factor receptor 1 (Homo sapiens, UniProt P17948) IC50

{"Compound": "Cc1ccoc1C(=O)Nc1cc(Oc2ccnc(-c3cc(C(=O)NCCCN4CCC(O)CC4)c[nH]3)c2)ccc1F", "IC50": "0.037 µM"}
{"Compound": "COc1cc(Nc2ncnc(Nc3ccc4c(cnn4Cc4ccccc4)c3)n2)cc(OC)c1OC", "IC50": "0.827 to 4.96 µM"}
{"Compound": "COc1cc(Nc2ncnc(Nc3ccc4c(ccn4Cc4ccccc4)c3)n2)cc(OC)c1OC", "IC50": "7.25 to 9.33 µM"}
{"Compound": "CCN1CCC(Oc2ccc3c(c2)/C(=C(\\c2cccc(Cl)c2)c2ncc[nH]2)C(=O)N3)CC1", "IC50": "0.5 to 5 µM"}
{"Compound": "O=C(c1c(Cl)ccc(OCC(F)(F)F)c1F)c1c[nH]c2ncc(-c3cccnc3)cc12", "IC50": "≤ 10 µM"}

Now examine the next entry.
I have this molecule here, c1ccc(Cc2cccc(Nc3c[nH]c4ncccc34)c2)cc1 , and I need its recorded IC50.
≤ 10 µM
